# TARGET: NAD-dependent protein deacetylase sirtuin-2 (Homo sapiens, UniProt Q8IXJ6)
# Sequence (Q8IXJ6 whole entry): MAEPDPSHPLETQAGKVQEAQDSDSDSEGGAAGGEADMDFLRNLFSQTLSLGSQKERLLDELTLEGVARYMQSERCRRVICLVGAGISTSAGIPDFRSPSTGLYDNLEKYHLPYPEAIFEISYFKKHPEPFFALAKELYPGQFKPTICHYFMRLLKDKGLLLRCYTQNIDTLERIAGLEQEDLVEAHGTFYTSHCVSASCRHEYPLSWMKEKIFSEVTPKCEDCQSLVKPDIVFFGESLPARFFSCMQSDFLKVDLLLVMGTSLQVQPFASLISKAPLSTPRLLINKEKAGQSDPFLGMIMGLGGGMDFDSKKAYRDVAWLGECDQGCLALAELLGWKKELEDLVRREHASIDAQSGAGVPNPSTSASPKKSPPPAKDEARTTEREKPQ
# PROTOCOL SUMMARY: Inhibition of human recombinant SIRT2 assessed as deacetylation of N-acetyl lysine residue in p53 (317 to 320) after 30 mins by luciferase-mediated luminescence assay
Returns: string. Value is yes (1) if measured IC50 is below 10 µM, and no (0) if it is greater than or equal to it.

Example entries begin here.
> print(dat)
                         structure.notation  class.name
1  CCCCCCCCn1c2c(c3cc(-c4cnc(N)nc4)ccc31)CN(C)CC2      no (0)
2  CCCCn1c2c(c3cc(-c4ccc(S(C)(=O)=O)cc4)ccc31)CNCC2      no (0)
3  CN1CCc2[nH]c3ccc(-c4ccc(S(C)(=O)=O)cc4)cc3c2C1      no (0)
4  CCCCCCCCn1c2c(c3cc(-c4ccc(S(C)(=O)=O)cc4)ccc31)CNCC2     yes (1)
5     CN1CCc2[nH]c3ccc(-c4cnc(N)nc4)cc3c2C1      no (0)
6  CCCCCCCCn1c2c(c3cc(-c4ccc(S(C)(=O)=O)cc4)ccc31)CN(C)CC2     yes (1)

Req: Identify whether the molecule CCCCn1c2c(c3cc(-c4cccc(C)c4)ccc31)CNCC2 records IC50 below 10 µM.
Resp: no (0)

Req: // query: CCCCCCCCn1c2c(c3cc(-c4cccc(C)c4)ccc31)CN(C)CC2
Resp: yes (1)

Req: // query: CCCCCCCCn1c2c(c3cc(-c4ccc(S(C)(=O)=O)cc4)ccc31)CN(C(N)=O)CC2
Resp: yes (1)

Req: // query: Cc1cccc(-c2ccc3[nH]c4c(c3c2)CNCC4)c1
Resp: no (0)

Req: // query: CCCCn1c2c(c3cc(-c4cnc(N)nc4)ccc31)CNCC2
Resp: no (0)

Req: // query: CCCCCCCCn1c2c(c3cc(-c4cccc(C)c4)ccc31)CN(C(C)C)CC2
Resp: no (0)

Req: // query: CCCCCCCCn1c2c(c3cc(-c4cnc(N)nc4)ccc31)CN(C(N)=O)CC2
Resp: no (0)

---

Give measured IC50 for each item. Keep answers brief.
# TARGET: NAD-dependent protein deacetylase sirtuin-1 (Homo sapiens, UniProt Q96EB6)
# Sequence (Q96EB6 whole entry): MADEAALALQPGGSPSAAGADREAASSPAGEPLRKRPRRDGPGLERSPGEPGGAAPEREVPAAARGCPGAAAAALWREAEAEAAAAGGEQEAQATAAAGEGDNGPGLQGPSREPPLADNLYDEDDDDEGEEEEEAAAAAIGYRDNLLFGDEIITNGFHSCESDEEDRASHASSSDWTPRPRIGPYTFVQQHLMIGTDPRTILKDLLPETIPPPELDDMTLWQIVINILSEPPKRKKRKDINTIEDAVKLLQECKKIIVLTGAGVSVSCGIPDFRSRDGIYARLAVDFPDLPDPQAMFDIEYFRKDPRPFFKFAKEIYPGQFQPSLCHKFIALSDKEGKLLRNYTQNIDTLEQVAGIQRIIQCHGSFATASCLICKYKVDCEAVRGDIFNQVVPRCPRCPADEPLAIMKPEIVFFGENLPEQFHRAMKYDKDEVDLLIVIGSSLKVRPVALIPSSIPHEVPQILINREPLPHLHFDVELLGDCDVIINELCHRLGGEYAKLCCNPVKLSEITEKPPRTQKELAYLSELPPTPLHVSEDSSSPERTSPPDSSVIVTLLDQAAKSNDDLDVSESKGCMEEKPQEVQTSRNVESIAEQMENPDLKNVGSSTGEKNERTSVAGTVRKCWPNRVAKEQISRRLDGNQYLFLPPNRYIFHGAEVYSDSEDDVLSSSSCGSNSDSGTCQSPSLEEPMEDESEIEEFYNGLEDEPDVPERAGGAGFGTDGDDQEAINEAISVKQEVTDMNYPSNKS
# PROTOCOL SUMMARY: Inhibition of human recombinant SIRT1 assessed as deacetylation of N-acetyl lysine residue in p53 (317 to 320) after 30 mins by luciferase-mediated luminescence assay
Answers are plain numbers, in µM.

Some entries whose results are on file:
> print(dat)
                         structure.notation  measured.metric  numeric.value
1  CCCCCCCCn1c2c(c3cc(-c4ccc(S(C)(=O)=O)cc4)ccc31)CNCC2             IC50           16.7
2  CCCCCCCCn1c2c(c3cc(-c4cccc(C)c4)ccc31)CN(C(C)C)CC2             IC50             26

Note: attention shifts to another entry.
Req: What value of measured IC50 is listed for CCCCCCCCn1c2c(c3cc(-c4cccc(C)c4)ccc31)CNCC2 ?
Resp: 20
